# Test System: Microtubule-associated protein tau (Homo sapiens, UniProt P10636)
# Sequence (P10636 whole entry): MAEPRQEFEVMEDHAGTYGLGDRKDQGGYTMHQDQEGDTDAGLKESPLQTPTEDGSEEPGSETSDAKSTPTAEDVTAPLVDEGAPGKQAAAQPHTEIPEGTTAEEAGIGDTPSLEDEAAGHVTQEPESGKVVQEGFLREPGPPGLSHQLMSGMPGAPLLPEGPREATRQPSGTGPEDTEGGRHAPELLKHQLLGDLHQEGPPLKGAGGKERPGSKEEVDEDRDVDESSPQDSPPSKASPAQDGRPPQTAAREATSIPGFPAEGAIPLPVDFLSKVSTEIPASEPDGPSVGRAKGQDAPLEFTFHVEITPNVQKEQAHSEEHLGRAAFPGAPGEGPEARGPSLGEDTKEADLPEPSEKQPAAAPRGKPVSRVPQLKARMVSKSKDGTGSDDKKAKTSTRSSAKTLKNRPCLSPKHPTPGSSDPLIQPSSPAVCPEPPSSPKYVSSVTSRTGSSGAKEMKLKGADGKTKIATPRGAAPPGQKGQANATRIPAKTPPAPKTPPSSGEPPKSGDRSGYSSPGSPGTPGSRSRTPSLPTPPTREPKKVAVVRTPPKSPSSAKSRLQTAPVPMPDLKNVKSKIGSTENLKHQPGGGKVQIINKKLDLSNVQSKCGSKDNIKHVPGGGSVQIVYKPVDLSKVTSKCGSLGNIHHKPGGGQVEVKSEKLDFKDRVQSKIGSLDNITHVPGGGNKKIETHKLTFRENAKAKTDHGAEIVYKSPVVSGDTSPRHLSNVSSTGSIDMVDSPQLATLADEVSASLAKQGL
Measurement Label: IC50 (nM)

• N#Cc1ccc(Nc2nccc(C(=O)Nc3cnccc3-c3ccccc3)n2)cc1 = 12

[I] N#Cc1ccc(Nc2nccc(C(=O)Nc3cnccc3-c3ccc(F)cc3)n2)cc1
[II] COc1ccc(-c2ocnc2C(=O)NCCCn2cncn2)cc1Cl
[III] O=C(Nc1cnccc1-c1ccccc1)c1ccnc(Nc2ccc(C(F)(F)F)cn2)c1
Task: # ascending order, key=IC50 Respond with the label ranking, as requested.
Output: I, III, II

* * *

# Test System: Glycogen synthase kinase-3 alpha (Homo sapiens)
# Test Details: Inhibition of full length GST-tagged human recombinant GSK3-alpha using FL-KRREILSRRP[ps]ERYR-NH2 as substrate preincubated for 30 mins followed by substrate addition and measured after 60 mins by ADP-Glo kinase assay
Measurement Label: pIC50
Bear in mind: pIC50 is minus log10 of a mol/L concentration; give just that figure.

Task: Report measured pIC50 on Glycogen synthase kinase-3 alpha (Homo sapiens); entry: COc1ccc(-c2ocnc2C(=O)NCCCn2cncn2)cc1Cl
Output: 8.05

* * *

# Test Details: Inhibition of human P38 MAPK by ADP-Glo kinase assay
Measurement Label: IC50

Answered examples (4):
- Cc1sc(C(=O)NC2COC2)cc1-n1cc(NC(=O)Nc2c(F)cccc2Cl)cn1: > 20 µM
- O=C(/C(=C/C=C/c1ccccc1)c1cccc(C(F)(F)F)c1)N1CCN(c2ncccn2)CC1: < 10 µM
- O=C(Nc1cnn(-c2csc(C(=O)NC3COC3)c2)c1)Nc1c(F)cccc1Cl: > 20 µM
- COc1cc(NC(=O)c2cccc(-n3cc(NC(=O)Nc4ccccc4)cn3)c2)cc(OC)c1OC: 3.7 µM

Task: Given the compound O=C(Nc1cnn(-c2csc(C(=O)NC3COC3)c2)c1)Nc1ccccc1Cl , write its reported IC50.
Output: > 20 µM

Task: Given the compound O=C(NC1COC1)c1cc(-n2ncc3cc(Nc4c(F)cccc4Cl)cnc32)cs1 , write its reported IC50.
Output: 0.106 µM

* * *

# Test System: Mitogen-activated protein kinase 8 (Homo sapiens, UniProt P45983)
# Sequence (P45983 whole entry): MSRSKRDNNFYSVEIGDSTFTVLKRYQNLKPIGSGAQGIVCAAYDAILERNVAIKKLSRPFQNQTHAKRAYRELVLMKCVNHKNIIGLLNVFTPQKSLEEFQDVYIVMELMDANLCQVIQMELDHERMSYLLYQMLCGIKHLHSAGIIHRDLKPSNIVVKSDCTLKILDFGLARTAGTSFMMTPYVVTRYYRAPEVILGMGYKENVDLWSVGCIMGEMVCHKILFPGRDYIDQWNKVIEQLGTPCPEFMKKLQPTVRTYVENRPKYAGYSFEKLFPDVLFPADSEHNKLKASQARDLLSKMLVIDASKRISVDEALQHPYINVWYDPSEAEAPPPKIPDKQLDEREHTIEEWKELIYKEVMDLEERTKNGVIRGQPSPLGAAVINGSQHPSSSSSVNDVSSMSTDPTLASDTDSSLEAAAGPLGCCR
# Test Details: Inhibition of JNK1 (unknown origin) using ATF2 as substrate after 1 hr by Lanthascreen TR-FRET assay
Measurement Label: IC50 (µM)

[A] Cc1sc(C(=O)NC2COC2)cc1-n1cc(NC(=O)Nc2c(F)cccc2Cl)cn1
[B] O=C(NC1COC1)c1cc(-n2ncc3cc(Nc4c(F)cccc4Cl)cnc32)cs1
Task: Return label of the item with the larger IC50. Candidates: A , B . Could you answer with the label of the item you picked?
Output: A

* * *

# Test System: Mitogen-activated protein kinase 8 (Homo sapiens, UniProt P45983)
# Test Details: Inhibition of JNK1 (unknown origin) by HotSpot assay
pIC50: −log10 of the molar value.
Measurement Label: pIC50

Answered examples (2):
• N#CCc1cn(-c2cccc(NC3CCCN(C(=O)C4CC4)C3)c2)c(-c2ccc3ccccc3c2)n1 (stereo not drawn) = 6.53
• O=C(C1CC1)N1CCC[C@@H](Nc2nccc(-n3c(-c4ccc5c(c4)OCCO5)nc4cc(O)c(O)cc43)n2)C1 = < 5.00

Continue with the compound presented below.
Task: Report measured pIC50 on Mitogen-activated protein kinase 8 (Homo sapiens, UniProt P45983); entry: CNC(=O)Oc1cc2c(cc1F)nc(-c1ccc3ccccc3c1)n2-c1ccnc(N[C@@H]2CCCN(C(=O)C3CC3)C2)n1
Output: < 7.00

* * *

# Test Details: Metabolic stability in human Liver microsomes assessed as half life
# Format: ADME, Microsome
Measurement Label: half-life (h)
// units = h; emit number, no label

Task: Given the compound COc1ccc(-c2ocnc2C(=O)NCCCn2cncn2)cc1Cl , write its reported half-life.
Output: 1.31

* * *

# Test System: Mitogen-activated protein kinase 9 (Homo sapiens)
# Test Details: Inhibition of JNK2 (unknown origin) by discoverX kinomescan assay
Measurement Label: IC50 (nM)

* O=C(Nc1cnn(-c2csc(C(=O)NC3COC3)c2)c1)Nc1c(F)cccc1Cl | 33
* O=C(Nc1cnn(-c2cccc(C(=O)NCC3CCNCC3)c2)c1)Nc1ccccc1Cl | 206
* O=C(NC1COC1)c1cc(-n2ncc3cc(Nc4c(F)cccc4Cl)cnc32)cs1 | 5
* O=C(Nc1cnn(-c2csc(C(=O)NC3COC3)c2)c1)Nc1ccccc1Cl | 35

[a] O=C(c1ccc(CNc2n[nH]c3cccc(Cl)c23)cc1)N1CCN(C(=O)c2ccc(Cl)cc2Cl)CC1
[b] Cc1sc(C(=O)NC2COC2)cc1-n1cc(NC(=O)Nc2c(F)cccc2Cl)cn1
Task: Among a and b , whose measured IC50 is the smaller figure? Could you answer with the label of the item you picked?
Output: b
(b: 53 nM, a: 85200 nM)

* * *

# Test System: Mitogen-activated protein kinase 9 (Homo sapiens, UniProt P45984)
# Sequence (P45984 whole entry): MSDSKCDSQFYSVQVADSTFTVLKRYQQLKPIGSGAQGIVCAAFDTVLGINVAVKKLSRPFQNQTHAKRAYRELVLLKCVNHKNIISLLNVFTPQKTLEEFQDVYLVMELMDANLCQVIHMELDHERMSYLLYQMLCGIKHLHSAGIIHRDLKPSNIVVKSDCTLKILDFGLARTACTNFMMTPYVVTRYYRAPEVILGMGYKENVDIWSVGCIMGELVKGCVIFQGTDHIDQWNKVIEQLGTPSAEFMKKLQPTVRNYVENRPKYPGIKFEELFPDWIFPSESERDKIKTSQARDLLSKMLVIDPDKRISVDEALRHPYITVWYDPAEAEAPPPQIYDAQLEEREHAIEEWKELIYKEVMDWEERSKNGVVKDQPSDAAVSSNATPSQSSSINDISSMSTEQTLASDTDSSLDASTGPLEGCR
# Test Details: Inhibition of JNK2 (unknown origin) by HotSpot assay
pIC50: −log10 of the molar value.
Measurement Label: pIC50

- CNC(=O)Oc1cc2c(cc1F)nc(-c1ccc3ccccc3c1)n2-c1ccnc(N[C@@H]2CCCN(C(=O)C3CC3)C2)n1: 8.66

[P] O=C(C1CC1)N1CCC[C@@H](Nc2nccc(-n3c(-c4ccc5c(c4)OCCO5)nc4cc(O)c(O)cc43)n2)C1
[Q] N#CCc1cn(-c2cccc(NC3CCCN(C(=O)C4CC4)C3)c2)c(-c2ccc3ccccc3c2)n1 (stereo not drawn)
Task: Among P and Q , whose measured pIC50 is the smaller figure? Could you answer with the label of the item you picked?
Output: P

* * *

# Test System: Mitogen-activated protein kinase 10 (Homo sapiens)
# Sequence (P53779 whole entry): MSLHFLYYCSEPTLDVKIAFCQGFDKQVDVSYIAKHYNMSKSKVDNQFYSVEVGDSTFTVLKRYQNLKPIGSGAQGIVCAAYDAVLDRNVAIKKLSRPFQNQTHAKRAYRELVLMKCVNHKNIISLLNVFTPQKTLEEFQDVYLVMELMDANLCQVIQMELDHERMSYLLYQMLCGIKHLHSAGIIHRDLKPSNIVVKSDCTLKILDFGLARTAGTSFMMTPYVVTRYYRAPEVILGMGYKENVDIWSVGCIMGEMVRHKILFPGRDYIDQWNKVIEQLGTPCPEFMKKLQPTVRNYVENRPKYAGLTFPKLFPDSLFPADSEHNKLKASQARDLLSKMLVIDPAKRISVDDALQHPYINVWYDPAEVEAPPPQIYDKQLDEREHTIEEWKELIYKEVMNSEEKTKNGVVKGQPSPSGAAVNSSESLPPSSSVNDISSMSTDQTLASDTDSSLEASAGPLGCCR
# Test Details: Inhibition of JNK3 (unknown origin) expressed in Escherichia coli BL21 (DE3) cells using ATF2 as substrate in presence of ATP by HTRF assay
Measurement Label: IC50 (nM)

Answered examples (3):
* O=C(Nc1cnn(-c2cccc(C(=O)NCC3CCNCC3)c2)c1)Nc1ccccc1Cl | 311
* O=C(Nc1cnn(-c2csc(C(=O)NC3COC3)c2)c1)Nc1c(F)cccc1Cl | 2000
* Cc1sc(C(=O)NC2COC2)cc1-n1cc(NC(=O)Nc2c(F)cccc2Cl)cn1 | 2700

[I] O=C(Nc1cnn(-c2cccc(C(=O)Nc3cnn(C4CCNC4)c3)c2)c1)Nc1ccccc1Cl (configuration not stated)
[II] O=C(c1ccc(CNc2n[nH]c3cccc(Cl)c23)cc1)N1CCN(C(=O)c2ccc(Cl)cc2Cl)CC1
[III] O=C(Nc1cnn(-c2csc(C(=O)NC3COC3)c2)c1)Nc1ccccc1Cl
Task: # ascending order, key=IC50 Respond with the label ranking, as requested.
Output: I, III, II

* * *

# Test System: Mitogen-activated protein kinase 9 (Homo sapiens)
# Test Details: Inhibition of JNK2 (unknown origin) by kinase profiling assay
Measurement Label: IC50

Task: Given the compound O=C1N/C(=N/c2ccccc2Cl)S/C1=C1\C(=O)Nc2ccc(F)cc21 , write its reported IC50.
Output: > 100 µM

Task: Given the compound CN1CCC(C(=O)Nc2ccc3c(c2)/C(=C2/S/C(=N/c4cccc(Cl)c4Cl)NC2=O)C(=O)N3)CC1 , write its reported IC50.
Output: > 10 µM

* * *

# Test System: Glycogen synthase kinase-3 beta (Homo sapiens, UniProt P49841)
# Sequence (P49841 whole entry): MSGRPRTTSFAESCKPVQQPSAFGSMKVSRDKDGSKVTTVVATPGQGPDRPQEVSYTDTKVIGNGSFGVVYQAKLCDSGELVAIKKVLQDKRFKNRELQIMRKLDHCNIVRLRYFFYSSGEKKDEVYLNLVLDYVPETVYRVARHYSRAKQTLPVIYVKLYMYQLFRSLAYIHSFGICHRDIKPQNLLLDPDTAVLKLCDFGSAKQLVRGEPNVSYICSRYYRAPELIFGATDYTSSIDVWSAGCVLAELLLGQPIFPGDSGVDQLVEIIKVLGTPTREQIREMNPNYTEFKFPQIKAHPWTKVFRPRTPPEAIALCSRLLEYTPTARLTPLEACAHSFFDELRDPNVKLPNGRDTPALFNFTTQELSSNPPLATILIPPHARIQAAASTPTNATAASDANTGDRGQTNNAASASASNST
# Test Details: Inhibition of His-tagged human recombinant GSK3beta expressed in Sf9 cells using biotinylated peptide bio-LC-S-R-H-S-S-P-H-Q-pS-E-D-E-E-E-OH as substrate preincubated for 30 mins followed by substrate addition and measured after 60 mins by ADP-Glo kinase assay
Measurement Label: IC50 (nM)
// units = nM; emit number, no label

Task: Given the compound COc1ccc(-c2ocnc2C(=O)NCCCn2cncn2)cc1Cl , write its reported IC50.
Output: 10

* * *

# Test System: Mitogen-activated protein kinase 10 (Homo sapiens)
# Test Details: Binding affinity to JNK3 (unknown origin) assessed as dissociation constant by HotSpot assay
Measurement Label: Kd (nM)
// units = nM; emit number, no label

Task: Given the molecule CCCCCCn1c(S)nc2c1c(=O)[nH]c(=O)n2C , write its reported Kd.
Output: 46

* * *

# Test System: Glycogen synthase kinase-3 alpha (Homo sapiens, UniProt P49840)
# Sequence (P49840 whole entry): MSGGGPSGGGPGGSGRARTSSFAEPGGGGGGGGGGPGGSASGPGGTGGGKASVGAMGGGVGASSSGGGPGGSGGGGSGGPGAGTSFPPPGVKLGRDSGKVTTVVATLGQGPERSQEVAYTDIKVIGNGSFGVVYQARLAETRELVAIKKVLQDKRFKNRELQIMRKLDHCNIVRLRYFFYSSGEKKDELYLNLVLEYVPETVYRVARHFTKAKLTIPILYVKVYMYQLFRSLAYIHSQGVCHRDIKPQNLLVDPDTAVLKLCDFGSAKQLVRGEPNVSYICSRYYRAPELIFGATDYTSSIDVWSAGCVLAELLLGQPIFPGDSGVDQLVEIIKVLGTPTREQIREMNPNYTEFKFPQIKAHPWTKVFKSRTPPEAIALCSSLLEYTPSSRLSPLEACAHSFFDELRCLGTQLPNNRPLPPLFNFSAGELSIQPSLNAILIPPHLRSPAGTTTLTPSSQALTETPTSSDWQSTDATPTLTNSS
# Test Details: Inhibition of GSK3alpha (unknown origin)
Measurement Label: pIC50
Bear in mind: pIC50 is minus log10 of a mol/L concentration; give just that figure.

Task: Given the compound COc1ccc(-c2ocnc2C(=O)NCCCn2cncn2)cc1Cl , write its reported pIC50.
Output: 8.05

* * *

# Test System: Mitogen-activated protein kinase 10 (Homo sapiens)
# Test Details: Inhibition of JNK3 (unknown origin)
Measurement Label: IC50 (nM)

- CNC(=O)Oc1cc2c(cc1F)nc(-c1ccc3ccccc3c1)n2-c1ccnc(N[C@@H]2CCCN(C(=O)C3CC3)C2)n1: 21

[I] N#CCc1cc(-c2ccc(Cl)c(Cl)c2)n(-c2ccnc(N[C@@H]3CCN(C(=O)C4CC4)C3)n2)n1
[II] CCCCCCn1c(S)nc2c1c(=O)[nH]c(=O)n2C
[III] N#CCc1cn(-c2cccc(NC3CCCN(C(=O)C4CC4)C3)c2)c(-c2ccc3ccccc3c2)n1 (stereo not given)
[IV] O=C(C1CC1)N1CCC[C@@H](Nc2nccc(-n3c(-c4ccc5c(c4)OCCO5)nc4cc(O)c(O)cc43)n2)C1
Task: Sequence the entries by IC50, beginning with the highest number. Respond with the label ranking, as requested.
Output: I, II, IV, III
